# target: T1, mesothelin on cells (endogenous on SN12C, OVCAR3, SW1990); HEK293 cells expressing cell-surface human … (human, UniProt Q13421 296-598)
# T1 construct: whole, on cells; also called cell-surface MSLN
# T1 sequence (Q13421 other isoform, or with tags, fused parts or gaps limits assumed): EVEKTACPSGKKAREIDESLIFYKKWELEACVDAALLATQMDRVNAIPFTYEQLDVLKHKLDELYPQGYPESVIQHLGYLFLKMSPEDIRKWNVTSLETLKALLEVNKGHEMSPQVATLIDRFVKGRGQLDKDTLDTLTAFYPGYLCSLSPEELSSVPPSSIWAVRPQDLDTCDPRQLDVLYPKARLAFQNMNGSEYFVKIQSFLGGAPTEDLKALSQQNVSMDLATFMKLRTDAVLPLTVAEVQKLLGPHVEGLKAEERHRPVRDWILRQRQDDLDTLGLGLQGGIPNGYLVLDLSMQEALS
# test details: FACS, OVCAR3 (CA125+)
Recorded Maximum binding (MFI) for the following binders
Note: unit MFI is implicit; provide only the numeric part.

binder: HuAM12 (antibody, V domains shown, fully human antibody) VH: EVQLVQSGAEVKKPGASVKVSCKASGDTFHRYYVHWVRQAPGQGLEWMGIINPSGVSTTYAQKFQGRVTMTRDTSTSTVYMELSSLRSEDTAVYYCAEVRGSGFNYFGMDVWGQGTLVTVSS VL: SYELTQPPSVSVSPGQTASITCSGDKLGDKYASWYQQKPGQSPVLVIYQDNRRPSGIPERFSGSNSGNTATLTISGTQAMDEADYYCQAWDSDTYVFGTGTKVTVL
Maximum binding (MFI): 3270
--
binder: HuAM15 (antibody, V domains shown, fully human antibody) VH: EVQLVQSGAEVKKPGASVKVSCKASGDTFKRYYVHWVRQAPGQGLEWMGIINPSGVSTTYAQKFQGRVTMTRDTSTSTVYMELSSLRSEDTAVYYCAEVRGSGFNYFGMDVWGQGTLVTVSS VL: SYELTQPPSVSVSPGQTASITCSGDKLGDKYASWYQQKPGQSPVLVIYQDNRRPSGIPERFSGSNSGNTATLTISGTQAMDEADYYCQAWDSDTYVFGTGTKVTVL
Maximum binding (MFI): 3550
--
binder: HuAM5 (antibody, V domains shown, fully human antibody) VH: EVQLVQSGAEVKKPGASVKVSCKASGDTFNRYYVHWVRQAPGQGLEWMGIINPSGVSTTYAQKFQGRVTMTRDTSTSTVYMELSSLRSEDTAVYYCAEVRGSGYNYFAMDVWGQGTLVTVSS VL: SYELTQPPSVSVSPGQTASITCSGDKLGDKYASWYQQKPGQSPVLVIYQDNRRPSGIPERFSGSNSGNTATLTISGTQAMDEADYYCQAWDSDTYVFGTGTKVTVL
Maximum binding (MFI): 3690
--
binder: HuAb17 (antibody, V domains shown, fully human antibody) VH: EVQLVQSGAEVKEPGASVKVSCKASGDTFNRYYVHWARQAPGQGLEWMGIINPSGVSTTYAQKFQGRVTMTRDTPTNTVYMELGSLRPEDTAVYFCAESRGSGYNYFAMDVWGQGTLVTVSS VL: SYELTQPPSVSVSPGQTADITCSGDKLGDKYASWYQQKPGQSPVLVIYQDNRRPSGIPERFSGSNSGNTATLTISGTQAMDEADYYCQAWDSDTYVFGPGTKVTVL
Maximum binding (MFI): 1640
--
binder: HuAM16 (antibody, V domains shown, fully human antibody) VH: EVQLVQSGAEVKKPGASVKVSCKASGDTFNRYYVQWVRQAPGQGLEWMGIINPSGVSTTYAQKFQGRVTMTRDTSTSTVYMELSSLRSEDTAVYYCAETRGSGFNYFGMDVWGQGTLVTVSS VL: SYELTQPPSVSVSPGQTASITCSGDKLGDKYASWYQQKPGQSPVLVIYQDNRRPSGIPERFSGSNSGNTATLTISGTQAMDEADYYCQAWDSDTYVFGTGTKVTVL
Maximum binding (MFI): 3610
--
binder: HuAM14 (antibody, V domains shown, fully human antibody) VH: EVQLVQSGAEVKKPGASVKVSCKASGDTFKRYYMHWVRQAPGQGLEWMGIINPSGVSTTYAQKFQGRVTMTRDTSTSTVYMELSSLRSEDTAVYYCAEVRGSGFNYFGMDVWGQGTLVTVSS VL: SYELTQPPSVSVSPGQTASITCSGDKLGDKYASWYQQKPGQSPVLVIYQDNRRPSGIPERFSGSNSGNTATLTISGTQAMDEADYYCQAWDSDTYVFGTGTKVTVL
Maximum binding (MFI): 3370
--
binder: HuAM11 (antibody, V domains shown, fully human antibody) VH: EVQLVQSGAEVKKPGASVKVSCKASGDTFKRYYMHWVRQAPGQGLEWMGIINPSGVSTTYAQKFQGRVTMTRDTSTSTVYMELSSLRSEDTAVYYCAEVRGSGFNYFGMDVWGQGTLVTVSS VL: SYELTQPPSVSVSPGQTASITCSGDKLGDKYASWYQQKPGQSPVLVIYQDNRRPSGIPERFSGSNSGNTATLTISGTQAMDEADYYCQVWDSDTYVFGTGTKVTVL
Maximum binding (MFI): 3430

Pending binder:
Hello, please tell me recorded Maximum binding (MFI) for this one: HuAM13 (antibody, V domains shown, fully human antibody) VH: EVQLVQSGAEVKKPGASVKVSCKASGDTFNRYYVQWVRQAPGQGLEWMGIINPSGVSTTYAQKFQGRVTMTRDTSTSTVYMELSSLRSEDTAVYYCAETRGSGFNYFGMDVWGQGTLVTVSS VL: SYELTQPPSVSVSPGQTASITCSGDKLGDKYASWYQQKPGQSPVLVIYQDNRRPSGIPERFSGSNSGNTATLTISGTQAMDEADYYCQVWDSDTYVFGTGTKVTVL 3670
